Every entry's value here was drawn from patent US20230250190A1.

Biological target: T1, T11 (Tn-MUC1) (PAPGSTAPPAHGVT(α-GalNAc)SAPDT(α-GalNAc)RPAPG-OH)
T1 peptide: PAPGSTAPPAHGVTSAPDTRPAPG
Assay: glycopeptide array
quantity-name: EC50 (µg/mL)
Give bare numbers, in µg/mL.

Give EC50 for each listed item.
1. 41 (antibody, V domains shown) VH: QVQLVQSGAEVKEPGASMTLSCKTSGYTFISNYIHWLRQAPGQGLEWLGVINPFGGATNYAQKFQGRVTMTRDTSTITVYMELSSLRSEDTAVYYCARDAMGGDSHFDYWGQGTLVTVSS
2. 130 (antibody, V domains shown) VH: QVQLVQSGAEVKKPGASVRVSCKASGYTFINYYLQWVRQAPGQGLEWMGTINPFDGSTHYAQKFQGRVTLTRDTSTSTVYMELNSLRSDDTAVYYCARDYMIGYVLFDYWGQGTLVTVSS

1: 0.134; 2: 0.14
